System: SARS-CoV-2
Experiment: in vitro
reported_endpoint: selectivity ratio

Return selectivity ratio measured with SARS-CoV-2 given this compound: NCCOB(c1ccccc1)c1ccccc1 [2ABP, 2-aminoethyl diphenylborinate]
> 8.26

* * *

What selectivity ratio at 24 h was measured for each of the following?
Test system: SARS-CoV-2
Test: in vitro
Structures can show the parent of a compound that is named as a salt.

May I ask what selectivity ratio at 24 h has been recorded for COC(=O)C1=C(C)NC(C)=C(C(=O)OCCN(C)Cc2ccccc2)C1c1cccc([N+](=O)[O-])c1 (centres unmarked) [nicardipine HCI, nicardipine HCl] ?
> 7.51

Tell me the measured selectivity ratio at 24 h of COCCOC(=O)C1=C(C)NC(C)=C(C(=O)OC/C=C/c2ccccc2)C1c1cccc([N+](=O)[O-])c1 (centres unmarked) , please.
> 8.64

* * *

Test system: Vero E6 cells
Experiment: cytotoxicity in Vero E6 cells, CCK-8 assay
Details: read-out: half cytotoxic concentration (CC50); Vero E6 cells, CCK-8 assay, 24 h
reported_endpoint: CC50 (µM)
Answer in µM, number only, no unit symbol.

State the recorded CC50 for this entry: CC(=O)OCOC(=O)CN(CC(=O)OCOC(C)=O)c1ccccc1OCCOc1ccccc1N(CC(=O)OCOC(C)=O)CC(=O)OCOC(C)=O
81.3
